- measured target: Human ALDH3A1 (Homo sapiens, UniProt P30838)
- Sequence (P30838 1-453): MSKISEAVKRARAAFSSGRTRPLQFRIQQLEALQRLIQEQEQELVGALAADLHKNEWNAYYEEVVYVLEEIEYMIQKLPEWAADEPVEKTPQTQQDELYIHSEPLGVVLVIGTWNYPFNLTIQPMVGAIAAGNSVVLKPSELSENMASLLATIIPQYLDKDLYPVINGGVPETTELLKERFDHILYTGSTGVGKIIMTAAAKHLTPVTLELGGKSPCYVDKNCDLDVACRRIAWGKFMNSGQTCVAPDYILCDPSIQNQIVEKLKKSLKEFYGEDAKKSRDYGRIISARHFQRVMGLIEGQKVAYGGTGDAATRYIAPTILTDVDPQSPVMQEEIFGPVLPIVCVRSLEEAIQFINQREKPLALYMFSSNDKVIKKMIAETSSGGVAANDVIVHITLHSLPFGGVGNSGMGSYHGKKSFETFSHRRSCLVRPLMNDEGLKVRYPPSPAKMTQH
- method description: ALDH3A1 biochemical assay (benzaldehyde/NADP+, diaphorase-resazurin readout, 1,536-well)
- recorded conditions: Table S4, biochemical curve class
readout type: CC-v2

mol | assay value
Cc1cccc(CNC(=O)c2csc(N3CCN(c4ccc(C5(C#N)CCCCC5)cc4)CC3)n2)c1 | -1.2
Cc1cccc(CNC(=O)c2csc(N3CCN(c4c(F)cccc4F)CC3)n2)c1 | -1.1
COc1cc(N2CCN(c3nc(C(=O)NCc4cccc(C)c4)cs3)CC2)cc(OC)c1OC | -1.2
Cc1cccc(CNC(=O)c2csc(N3CCN(c4ccc(Cl)c(Cl)c4)CC3)n2)c1 | -1.1
COc1ccc(Cl)c(N2CCN(c3nc(C(=O)NCc4cccc(C)c4)cs3)CC2)c1 | -1.1
Cc1cccc(CNC(=O)c2csc(N3CCN(c4cc(Cl)c(Cl)c(Cl)c4)CC3)n2)c1 | -1.2
Cc1cccc(CNC(=O)c2csc(N3CCN(c4ccc(OCCF)cc4)CC3)n2)c1 | -1.2
Cc1cccc(CNC(=O)c2csc(N3CCN(c4cccc(OCc5ccc(Cl)cc5)c4)CC3)n2)c1 | -1.2
COc1ccc(N2CCN(c3nc(C(=O)NCc4cccc(C)c4)cs3)CC2)cc1O | -1.2
Cc1cccc(CNC(=O)c2csc(N3CCN(c4cccc(C(F)(F)F)c4)CC3)n2)c1 | -1.1
